target-or-system: UniProt:Q04864
Sequence (Q04864 2-619 limits assumed): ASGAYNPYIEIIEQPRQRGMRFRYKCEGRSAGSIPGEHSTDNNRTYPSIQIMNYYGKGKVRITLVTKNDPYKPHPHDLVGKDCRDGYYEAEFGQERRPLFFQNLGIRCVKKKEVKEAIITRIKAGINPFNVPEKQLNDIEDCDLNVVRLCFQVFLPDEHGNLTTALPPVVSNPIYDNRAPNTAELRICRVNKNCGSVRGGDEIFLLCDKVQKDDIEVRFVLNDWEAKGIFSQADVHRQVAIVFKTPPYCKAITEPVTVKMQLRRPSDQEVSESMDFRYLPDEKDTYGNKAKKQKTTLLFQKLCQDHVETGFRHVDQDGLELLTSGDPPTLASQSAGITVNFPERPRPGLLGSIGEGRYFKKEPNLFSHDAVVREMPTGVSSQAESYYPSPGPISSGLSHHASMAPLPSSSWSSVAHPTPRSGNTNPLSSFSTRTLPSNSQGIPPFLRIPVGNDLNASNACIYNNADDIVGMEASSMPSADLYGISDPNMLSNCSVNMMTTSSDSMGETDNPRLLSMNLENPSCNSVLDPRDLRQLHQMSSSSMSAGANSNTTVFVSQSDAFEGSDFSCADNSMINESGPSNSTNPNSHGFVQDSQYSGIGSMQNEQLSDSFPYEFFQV
protocol-description: TransAM NF-κB family DNA binding ELISA, c-Rel
Type: biochemical
Returns label 1 if the recorded inhibition at 5 µM is greater than or equal to 2%, and label 0 otherwise.

compound: O=C(NC1=CC(=O)C2OC2C1O)c1cccc(Cl)c1O (racemic)
target-or-system: UniProt:Q04864
discrete-label: label 1
--
compound: Cc1cccc(C(=O)NC2=CC(=O)C3OC3C2O)c1O (racemic)
target-or-system: UniProt:Q04864
discrete-label: label 0
--
compound: O=C(NC1=CC(=O)C2OC2C1O)c1cc(Br)ccc1O (racemic)
target-or-system: UniProt:Q04864
discrete-label: label 1
--
compound: O=C(NC1=CC(=O)C2OC2C1O)c1ccc2ccccc2c1O (racemic)
target-or-system: UniProt:Q04864
discrete-label: label 1
--
compound: Cc1ccc(C(=O)NC2=CC(=O)C3OC3C2O)c(O)c1 (racemic)
target-or-system: UniProt:Q04864
discrete-label: label 1
--
compound: O=C(NC1=CC(=O)C2OC2C1O)c1ccc(C(F)(F)F)cc1O (racemic)
target-or-system: UniProt:Q04864
discrete-label: label 0
--
compound: O=C(NC1=CC(=O)C2OC2C1O)c1ccc(Cl)cc1O (racemic)
target-or-system: UniProt:Q04864
discrete-label: label 1
--
compound: COc1ccc(C(=O)NC2=CC(=O)C3OC3C2O)c(O)c1 (racemic)
target-or-system: UniProt:Q04864
discrete-label: label 1

###

target-or-system: RelB (Homo sapiens, UniProt Q01201)
Sequence (Q01201 1-579): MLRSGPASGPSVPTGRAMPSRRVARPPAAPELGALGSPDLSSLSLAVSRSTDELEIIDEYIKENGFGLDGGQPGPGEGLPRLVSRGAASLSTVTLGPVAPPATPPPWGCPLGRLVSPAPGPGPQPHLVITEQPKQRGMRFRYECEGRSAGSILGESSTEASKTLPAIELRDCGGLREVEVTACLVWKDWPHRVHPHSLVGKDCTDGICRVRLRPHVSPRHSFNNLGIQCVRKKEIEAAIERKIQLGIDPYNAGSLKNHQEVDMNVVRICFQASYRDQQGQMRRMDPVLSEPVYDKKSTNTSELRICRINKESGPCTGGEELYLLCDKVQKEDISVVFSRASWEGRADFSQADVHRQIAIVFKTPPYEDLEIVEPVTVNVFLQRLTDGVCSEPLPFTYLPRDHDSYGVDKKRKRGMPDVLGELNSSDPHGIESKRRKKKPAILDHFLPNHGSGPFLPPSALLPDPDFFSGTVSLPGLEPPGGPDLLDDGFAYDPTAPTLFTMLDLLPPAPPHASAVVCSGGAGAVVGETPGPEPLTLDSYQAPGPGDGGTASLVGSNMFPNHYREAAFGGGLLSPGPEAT
protocol-description: TransAM NF-κB family DNA binding ELISA, RelB
Type: biochemical
cond: binding to NF-κB consensus oligonucleotide; cells without % sign
Where a name gives a salt, the structure may show the parent alone.
Please respond with Satisfied when measured IC50 is strictly beneath 10 µM, and with Not satisfied in all other cases.

compound: O=C(NC1=CC(=O)C2OC2C1O)c1cc2cc(Br)ccc2cc1O (racemic)
discrete-label: Satisfied

compound: CN(C)c1ccc(C(=O)NC2=CC(=O)C3OC3C2O)c(O)c1 (racemic) [Example 19, trifluoroacetate]
discrete-label: Satisfied

compound: CN(C)c1ccc(C(=O)NC2=CC(=O)C3OC3C2O)c(O)c1 (racemic) [Example 10]
discrete-label: Not satisfied

compound: Cc1ccc(C(C)C)c(C(=O)NC2=CC(=O)C3OC3C2O)c1O (racemic)
discrete-label: Not satisfied

compound: COc1cc(N(C)C)ccc1C(=O)NC1=CC(=O)C2OC2C1O (racemic)
discrete-label: Satisfied

###

Examples of compounds with documented pIC50 follow.
target-or-system: c-Rel (Homo sapiens)
Sequence (Q04864 2-619 limits assumed): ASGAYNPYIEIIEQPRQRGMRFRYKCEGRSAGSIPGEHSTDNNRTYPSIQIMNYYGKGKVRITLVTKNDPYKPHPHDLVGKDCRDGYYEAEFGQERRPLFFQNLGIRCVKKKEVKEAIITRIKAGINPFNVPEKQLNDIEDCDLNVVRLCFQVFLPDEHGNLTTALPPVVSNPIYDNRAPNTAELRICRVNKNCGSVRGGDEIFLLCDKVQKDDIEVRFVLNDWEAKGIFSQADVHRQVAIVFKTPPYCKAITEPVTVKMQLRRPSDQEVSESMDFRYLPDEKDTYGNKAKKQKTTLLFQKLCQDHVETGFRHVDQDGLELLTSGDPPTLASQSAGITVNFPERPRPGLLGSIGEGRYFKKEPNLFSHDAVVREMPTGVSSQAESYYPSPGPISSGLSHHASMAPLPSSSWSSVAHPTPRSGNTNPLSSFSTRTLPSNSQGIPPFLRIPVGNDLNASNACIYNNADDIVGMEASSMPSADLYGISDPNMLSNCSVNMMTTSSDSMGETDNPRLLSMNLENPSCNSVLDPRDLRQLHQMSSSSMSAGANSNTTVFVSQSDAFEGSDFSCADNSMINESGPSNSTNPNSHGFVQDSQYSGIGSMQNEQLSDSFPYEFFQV
pIC50: −log10 of the molar value. Where a name gives a salt, the structure may show the parent alone.
metric-name: pIC50

compound: COc1cc(N(C)C)ccc1C(=O)NC1=CC(=O)C2OC2C1O (racemic)
metric-name: pIC50
recorded-number: 5.72

compound: CN(C)c1ccc(C(=O)NC2=CC(=O)C3OC3C2O)c(O)c1 (racemic) [Example 19, trifluoroacetate]
metric-name: pIC50
recorded-number: 4.85

compound: Cc1ccc(C(C)C)c(C(=O)NC2=CC(=O)C3OC3C2O)c1O (racemic)
metric-name: pIC50
recorded-number: 3.63

compound: CN(C)c1ccc(C(=O)NC2=CC(=O)C3OC3C2O)c(O)c1 (racemic) [Example 10]
metric-name: pIC50
recorded-number: 4.77

compound: O=C(NC1=CC(=O)C2OC2C1O)c1cc2cc(Br)ccc2cc1O (racemic)
metric-name: pIC50
recorded-number: 5.43

###

Test system: NF-κB
protocol-description: 293/NFkB-luc reporter cell assay (TNF-α induced luciferase expression)
Format: cell-based
cond: Homo sapiens, HEK293; median of three independent experiments; 293 cells, 20 ng/ml TNF-α; read-out: median IC50, inhibition of expression of the luciferase gene

compound: CN(C)c1ccc(C(=O)NC2=CC(=O)C3OC3C2O)c(O)c1 (racemic)
endpoint-unit: µM
IC50: 8.7

###

Test system: NF-κB
protocol-description: NF-κB/293/GFP reporter cell assay (TNF-α induced GFP expression)
Type: cell-based
cond: 293 cells, pTRH1-NF-κB-dscGFP reporter, 2 h pretreatment, 20 ng/ml TNF-α 18 h; trifluoroacetate; read-out: NF-KB/293/GFP EC50
Where a name gives a salt, the structure may show the parent alone.

molecule: CN(C)c1ccc(C(=O)NC2=CC(=O)C3OC3C2O)c(O)c1 (racemic) [Example 19, trifluoroacetate]
target-or-system: NF-κB
endpoint-unit: nM
EC50: 1700

###

target-or-system: p65 (RelA) (Homo sapiens)
Sequence (Q04206 whole entry): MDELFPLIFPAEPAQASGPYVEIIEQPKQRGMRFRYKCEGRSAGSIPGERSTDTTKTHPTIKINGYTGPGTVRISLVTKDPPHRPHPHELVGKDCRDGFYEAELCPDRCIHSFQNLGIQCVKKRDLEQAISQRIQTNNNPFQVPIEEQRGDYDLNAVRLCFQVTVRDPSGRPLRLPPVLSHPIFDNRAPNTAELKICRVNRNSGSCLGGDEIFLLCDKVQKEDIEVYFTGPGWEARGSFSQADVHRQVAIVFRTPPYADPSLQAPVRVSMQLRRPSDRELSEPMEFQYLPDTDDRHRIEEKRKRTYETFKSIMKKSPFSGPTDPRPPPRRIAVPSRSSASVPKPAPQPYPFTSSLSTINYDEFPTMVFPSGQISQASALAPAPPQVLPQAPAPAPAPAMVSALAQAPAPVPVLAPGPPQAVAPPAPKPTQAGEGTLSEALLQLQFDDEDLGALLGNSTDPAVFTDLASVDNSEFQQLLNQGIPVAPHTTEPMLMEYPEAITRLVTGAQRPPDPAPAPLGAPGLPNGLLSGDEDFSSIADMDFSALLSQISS
Structures can show the parent of a compound that is named as a salt.
metric-name: IC50 (µM)

molecule: Cc1ccc(C(=O)NC2=CC(=O)C3OC3C2O)c(O)c1 (racemic) [Example 3]
recorded-number: 17

molecule: O=C(NC1=CC(=O)C2OC2C1O)c1ccc2ccccc2c1O (racemic) [Example 8]
recorded-number: 45.2

molecule: COc1ccc2cc(O)c(C(=O)NC3=CC(=O)C4OC4C3O)cc2c1 (racemic) [Example 11]
recorded-number: 479

molecule: Cc1cccc(C(=O)NC2=CC(=O)C3OC3C2O)c1O (racemic) [Example 4]
recorded-number: 36.3

molecule: O=C(NC1=CC(=O)C2OC2C1O)c1cccc(Cl)c1O (racemic) [Example 6]
recorded-number: 19.4

molecule: O=C(NC1=CC(=O)C2OC2C1O)c1cc(Br)ccc1O (racemic) [Example 9]
recorded-number: 17.7

molecule: CN(C)c1ccc(C(=O)NC2=CC(=O)C3OC3C2O)c(O)c1 (racemic) [Example 19, trifluoroacetate]
recorded-number: 3
